These entries and their values trace back to the PolyMetriX glass transition set.

glass transition temperature values by entry
Measure: glass transition temperature (°C)

{"Compound": "*CC(*)(C)C(=O)OCC(CC)CC (repeat unit) [Poly(2-ethylbutyl methacrylate) ]", "Measure": "glass transition temperature", "Reported value": 10.4}
{"Compound": "*CC(*)c1ccc(CO)cc1 (repeat unit) [Poly(p-hydroxymethyl styrene) ]", "Measure": "glass transition temperature", "Reported value": 139}
{"Compound": "*Oc1ccc(Oc2ccc(Oc3ccc4c(c3)C(=O)N(CCCCCCN3C(=O)c5ccc(*)cc5C3=O)C4=O)cc2)cc1 (repeat unit) [Polyetherimide 1 ]", "Measure": "glass transition temperature", "Reported value": 126.4}

###

{"Compound": "*Nc1cc(NC(=O)c2ccc3cc(C(*)=O)ccc3c2)cc(C(=O)OCCOc2ccc(/C=C/C(=O)c3ccccc3)cc2)c1 (repeat unit)", "glass transition temperature [°C]": 247.00}
{"Compound": "*CC(*)C(=O)OCC(F)(F)C(F)(F)OC(F)(F)C(F)(F)C(F)(F)C(F)(F)F (repeat unit)", "glass transition temperature [°C]": -68.00}
{"Compound": "*c1cccc(OCCCCCCOc2cccc(N3C(=O)c4ccc(-c5cccc6c5C(=O)N(*)C6=O)cc4C3=O)c2)c1 (repeat unit)", "glass transition temperature [°C]": 157.00}
{"Compound": "*CC(*)C(=O)c1ccccc1 (repeat unit)", "glass transition temperature [°C]": 60.80}
{"Compound": "*Oc1ccc(OC(=O)c2ccc(OCCCCCCOc3ccc(C(*)=O)cc3)cc2)cc1S(=O)(=O)c1ccccc1 (repeat unit)", "glass transition temperature [°C]": 105.50}
{"Compound": "*CC(*)(C)C(=O)OC1CCCCC1C(C)(C)C (repeat unit)", "glass transition temperature [°C]": 185.00}
{"Compound": "*c1ccc2c(c1)C(=O)N(c1cccc(C(=O)Nc3ccc(Oc4ccc(Oc5ccc(NC(=O)c6cccc(N7C(=O)c8ccc(C(*)(C(F)(F)F)C(F)(F)F)cc8C7=O)c6)cc5)cc4)cc3)c1)C2=O (repeat unit)", "glass transition temperature [°C]": 283.00}

###

glass transition temperature values by entry

{"Compound": "*c1ccc(Oc2c(C)cc(Cc3cc(C)c(Oc4ccc(N5C(=O)c6ccc(-c7ccc8c(c7)C(=O)N(*)C8=O)cc6C5=O)cc4)c(C)c3)cc2C)cc1 (repeat unit)", "Reading unit": "°C", "glass transition temperature": 310.00}
{"Compound": "*CC(*)c1cc[n+](CCCCCCCC)cc1 (repeat unit)", "Reading unit": "°C", "glass transition temperature": 206.20}
{"Compound": "*Oc1ccc(C2(c3ccc(OC(=O)CCCCC(*)=O)cc3)c3ccccc3-c3ccccc32)cc1 (repeat unit)", "Reading unit": "°C", "glass transition temperature": 166.00}
{"Compound": "*Oc1ccc(/N=C(\\c2ccccc2)c2ccc(Oc3ccc(C(C)(C)c4ccc(Oc5ccc(/C(=N/c6ccc(*)cc6)c6ccccc6)cc5)cc4)cc3)cc2)cc1 (repeat unit)", "Reading unit": "°C", "glass transition temperature": 155.00}

###

Mark Fulfilled only for glass transition temperature values smaller than 80 °C; exact matches and larger values are Not fulfilled.

{"Compound": "*c1ccc2c(c1)C(=O)N(c1c(C)cc(C)c(C(=O)c3cccc(N4C(=O)c5ccc(C(*)(C(F)(F)F)C(F)(F)F)cc5C4=O)c3)c1C)C2=O (repeat unit)", "Label": "Not fulfilled"}
{"Compound": "*c1c(C)cc(-c2cc(C)c(N3C(=O)c4ccc(Oc5ccc(C(C)(C)c6ccc(Oc7ccc8c(c7)C(=O)N(*)C8=O)cc6)cc5)cc4C3=O)c(C)c2)cc1C (repeat unit)", "Label": "Not fulfilled"}
{"Compound": "*Oc1cccc(Oc2ccc(C(=O)c3ccc(*)cc3)cc2)c1 (repeat unit)", "Label": "Not fulfilled"}
{"Compound": "*CCCCCCCCOc1ccc(CCc2ccc(O*)cc2C)cc1 (repeat unit)", "Label": "Fulfilled"}
{"Compound": "*Oc1ccc(C2(c3ccc(OC(*)=O)c(C)c3)CCCCC2)cc1C (repeat unit)", "Label": "Not fulfilled"}
{"Compound": "*c1ccc(Oc2ccc(-c3nc4cc(Oc5ccc(NC(=O)c6cc(C(=O)Nc7ccc(Oc8ccc9nc(-c%10ccccc%10)c(*)nc9c8)cc7)cc(N7C(=O)c8ccccc8C7=O)c6)cc5)ccc4nc3-c3ccccc3)cc2)cc1 (repeat unit)", "Label": "Not fulfilled"}
{"Compound": "*C(=O)c1ccc2c(c1)C(=O)N(c1cccc(Nc3nc(Nc4cccc(N5C(=O)c6ccc(*)cc6C5=O)c4)nc(N(c4ccccc4)c4ccccc4)n3)c1)C2=O (repeat unit)", "Label": "Not fulfilled"}
{"Compound": "*CC(*)C(=O)Nc1ccc(C(=O)/C=C/c2ccc(Br)cc2)cc1 (repeat unit)", "Label": "Fulfilled"}
{"Compound": "*c1cccc(N2C(=O)c3ccc(Oc4ccc(Oc5ccc6c(c5)C(=O)N(*)C6=O)cc4)cc3C2=O)c1 (repeat unit)", "Label": "Not fulfilled"}
{"Compound": "*Oc1ccc(/C=N/N=C/c2ccc(Oc3ccc(C(c4ccc(*)cc4)(C(F)(F)F)C(F)(F)F)cc3)cc2)cc1 (repeat unit)", "Label": "Not fulfilled"}
{"Compound": "*Oc1ccc(C2(c3ccc(OC(=O)CCC(*)=O)cc3)c3cc(N(C)C)ccc3-c3ccc([N+](=O)[O-])cc32)cc1 (repeat unit)", "Label": "Not fulfilled"}
{"Compound": "*c1ccc2c(c1)C(=O)N(c1ccc(C(=O)Nc3ccc(Oc4ccc(C(c5ccc(Oc6ccc(NC(=O)c7ccc(N8C(=O)c9ccc(C(*)(C(F)(F)F)C(F)(F)F)cc9C8=O)cc7)cc6)cc5)(C(F)(F)F)C(F)(F)F)cc4)cc3)cc1)C2=O (repeat unit)", "Label": "Not fulfilled"}
{"Compound": "*Oc1cccc2ccc(Oc3ccc(NC(=O)c4cc(C(=O)Nc5ccc(*)cc5)cc(C(C)(C)C)c4)cc3)cc12 (repeat unit)", "Label": "Not fulfilled"}
{"Compound": "*Oc1ccc(-c2ccc(Oc3ccc(C(=O)c4ccccc4-c4ccccc4C(=O)c4ccc(*)cc4)cc3)cc2)cc1 (repeat unit)", "Label": "Not fulfilled"}
{"Compound": "*c1cc(CC(=O)OCC)c(*)s1 (repeat unit)", "Label": "Fulfilled"}
{"Compound": "*c1cccc(C(c2cccc(N3C(=O)c4ccc(-c5ccc6c(c5)C(=O)N(*)C6=O)cc4C3=O)c2)(C(F)(F)F)C(F)(F)F)c1 (repeat unit)", "Label": "Not fulfilled"}
{"Compound": "*C(=O)Nc1ccc(C2(c3ccc(NC(=O)c4ccc5c(c4)C(=O)N(c4ccc(Sc6ccc(Oc7ccc(Sc8ccc(N9C(=O)c%10ccc(*)cc%10C9=O)cc8)cc7)cc6)cc4)C5=O)cc3)c3ccccc3-c3ccccc32)cc1 (repeat unit)", "Label": "Not fulfilled"}
{"Compound": "*C(=O)c1ccc2c(c1)C(=O)N(c1ccc(Oc3ccc(N4C(=O)c5ccc(*)cc5C4=O)cc3Br)c(Br)c1)C2=O (repeat unit)", "Label": "Not fulfilled"}
{"Compound": "*c1ccc(Oc2ccc(N3C(=O)c4ccc(P(=O)(c5ccccc5)c5ccc6c(c5)C(=O)N(*)C6=O)cc4C3=O)cc2)cc1 (repeat unit)", "Label": "Not fulfilled"}
{"Compound": "*c1ccc(-c2ccc(-c3nc4ccc(Oc5ccc6nc(*)c(-c7ccccc7)c(-c7ccccc7)c6c5)cc4c(-c4ccccc4)c3-c3ccccc3)cc2)cc1 (repeat unit)", "Label": "Not fulfilled"}
{"Compound": "*OC(=O)C(CCSC)NC(=O)CCCCCCCCC(=O)NC(CCSC)C(=O)OC1COC2C(*)COC12 (repeat unit)", "Label": "Fulfilled"}
{"Compound": "*CCCNC(=O)C(Cc1ccccc1)NC(=O)CCCCCCCCC(=O)NC(Cc1ccccc1)C(=O)NCCCOCCOCCO* (repeat unit)", "Label": "Fulfilled"}
{"Compound": "*OC(COc1ccccc1)CC(*)=O (repeat unit)", "Label": "Fulfilled"}
{"Compound": "*CC(CCCCCC)C(CCCCCC)COC(=O)c1ccc(C(=O)O*)cc1 (repeat unit)", "Label": "Fulfilled"}
{"Compound": "*Oc1ccccc1C(=O)OC(=O)c1ccccc1OC(=O)CCCCCCC(*)=O (repeat unit)", "Label": "Fulfilled"}
{"Compound": "*CCCCCCC(=O)Oc1ccc(OC(=O)c2ccc3c(c2)C(=O)N(*)C3=O)c(C)c1 (repeat unit)", "Label": "Fulfilled"}
{"Compound": "*CC(*)OC(=O)c1ccc(C(C)C)cc1 (repeat unit)", "Label": "Fulfilled"}
